target: hα7-wt nAChR (Homo sapiens, UniProt P36544); experiment: Ca2+ flux imaging (FDSS) (Protocol B), potentiation of the choline response; conditions: Ca2+ assay as described in D.1; "<5" = activity did not reach a top plateau at maximal concentration
Sequence (P36544 23-502): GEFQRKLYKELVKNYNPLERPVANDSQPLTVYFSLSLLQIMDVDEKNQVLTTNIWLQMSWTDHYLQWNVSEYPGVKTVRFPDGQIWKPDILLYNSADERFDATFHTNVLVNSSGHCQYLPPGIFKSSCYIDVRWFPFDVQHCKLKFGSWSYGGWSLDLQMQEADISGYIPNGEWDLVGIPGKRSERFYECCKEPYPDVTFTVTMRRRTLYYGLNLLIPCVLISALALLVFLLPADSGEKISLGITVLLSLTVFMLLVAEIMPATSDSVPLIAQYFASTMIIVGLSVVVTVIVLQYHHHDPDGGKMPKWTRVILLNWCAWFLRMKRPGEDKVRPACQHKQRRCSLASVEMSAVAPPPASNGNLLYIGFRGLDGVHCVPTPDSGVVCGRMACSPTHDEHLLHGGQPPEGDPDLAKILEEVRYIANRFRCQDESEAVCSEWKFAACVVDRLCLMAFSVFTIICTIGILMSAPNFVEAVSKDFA
pEC50: −log10 of the molar value.
Recorded Endpoint: pEC50

| Compound | Recorded Measurement |
| --- | --- |
| Cc1cc(-c2cc(Nc3cccc(C(F)(F)F)c3)nn2CCC(=O)N(C)C)cc(C)n1 [compound 178] | 6.26 |
| CNC(=O)Cn1nc(Nc2cc(F)c(F)c(F)c2)cc1-c1ccc2c(c1)OCCO2 [compound 74] | 6.60 |
| CCNc1cc(-c2cc(Nc3cc(F)cc(C(F)(F)F)c3)nn2C[C@H](C)O)ccn1 [compound 64] | 5.85 |
| Cc1cc(-c2cc(Nc3cc(F)cc(Cl)c3)nn2C[C@H](C)O)ccn1 [compound 42] | 5.95 |
| CCNC(=O)Cn1nc(Nc2cc(F)cc(C(F)(F)F)c2)cc1-c1ccncc1C [compound 31] | 5.57 |
| CC[C@H](O)Cn1nc(Nc2cc(F)cc(F)c2)cc1-c1ccnc(Cl)c1 [compound 47] | 6.36 |

1: Cc1cc(-c2cc(Nc3cccc(Cl)c3)nn2CCC(=O)N(C)C)ccn1 [compound 146]
2: CCNC(=O)Cn1nc(Nc2cc(F)c(F)c(F)c2)cc1-c1cc(C)nc(C)c1 [compound 167]
-- ask Given 1 and given 2 , which shows the smaller recorded pEC50? Give the chosen item's label as your response.
-- reply 1

* * *

biological target: hα7-wt nAChR-expressing GH4C1 cells (Homo sapiens, UniProt P36544); construct: expressed in transfected cells; assay: Patch-clamp current recording (whole-cell voltage clamp), potentiation of the choline current and PAM type; type: cell-based; set-up: key: Type 0 compounds minimally enhance the effect size of the current elicited by 1 mM choline.; Type 1 compounds enhance the effect size of the current elicited by 1 mM choline but minimally alter the kinetics of the receptor.; Type 2 compounds enhance the effect size of the current elicited by 1 mM choline while reducing the rate and/or the extent of desensitization.; Type 3 compounds enhance the effect size of the current elicited by 1 mM choline. When tested at higher concentrations up to 10 μM they completely inhibit desensitization, in particular a 1 mM choline application of 250 milliseconds.; Type 4 compounds allow for an initial desensitization of the receptor followed by a re-opening of the receptor during agonist application; conditions: 1 mM choline
Sequence (P36544 23-502): as above
Recorded Endpoint: PAM type
Returns: the value as a bare number; no unit string appended.

| Smiles String | Tested On | PAM type |
| --- | --- | --- |
| Cc1cc(-c2cc(Nc3cccc(Cl)c3F)nn2CCC(=O)N(C)C)cc(C)n1 | hα7-wt nAChR-expressing GH4C1 cells (Homo sapiens, UniProt P36544) | 1 |
| CC[C@H](O)Cn1nc(Nc2cc(OC)cc(C(F)(F)F)c2)cc1-c1ccnc(C)c1 | hα7-wt nAChR-expressing GH4C1 cells (Homo sapiens, UniProt P36544) | 0 |
| CNC(=O)Cn1nc(Nc2cccc(F)c2)cc1-c1ccc2c(c1)OCCO2 | hα7-wt nAChR-expressing GH4C1 cells (Homo sapiens, UniProt P36544) | 2 |
| Cc1cc(-c2cc(Nc3ccc(F)c(F)c3)nn2CCC(=O)N(C)C)ccn1 | hα7-wt nAChR-expressing GH4C1 cells (Homo sapiens, UniProt P36544) | 2 |

Next molecule, PAM type to be filled in.
# PAM type (molecule: Cc1cc(-c2cc(Nc3ccc4c(c3)OC(F)(F)O4)nn2CC(=O)NC2CCC2)cc(C)n1 ) is 1

* * *

molecular target: hα7-wt nAChR (Homo sapiens, UniProt P36544); assay: Ca2+ flux imaging (FDSS) (Protocol B), potentiation of the choline response; details: Ca2+ assay as described in D.1; "<5" = activity did not reach a top plateau at maximal concentration
pEC50: −log10 of the molar value.
Recorded Endpoint: pEC50

| Molecule | Tested On | Recorded Measurement |
| --- | --- | --- |
| CCNC(=O)Cn1nc(Nc2cccc(OC(F)(F)F)c2)cc1-c1ccnc(C)c1 [compound 37] | hα7-wt nAChR (Homo sapiens, UniProt P36544) | 6.00 |
| CNC(=O)Cn1nc(Nc2ccc(F)c(F)c2F)cc1-c1cc(C)nc(C)c1 [compound 120] | hα7-wt nAChR (Homo sapiens, UniProt P36544) | 5.94 |
| CCNc1cc(-c2cc(Nc3ccc(F)c(F)c3)nn2C[C@H](C)O)ccn1 [compound 62] | hα7-wt nAChR (Homo sapiens, UniProt P36544) | 5.88 |
| CC[C@H](O)Cn1nc(Nc2cc(OC)cc(C(F)(F)F)c2)cc1-c1ccnc(C)c1 [compound 183] | hα7-wt nAChR (Homo sapiens, UniProt P36544) | 6.10 |
| CNC(=O)Cn1nc(Nc2cc(F)c(F)c(F)c2)cc1-c1cc(C)nc(C)c1 [compound 127] | hα7-wt nAChR (Homo sapiens, UniProt P36544) | 5.99 |
| CNC(=O)Cn1nc(Nc2cccc(C(F)(F)F)c2)cc1-c1cc(C)nc(C)c1 [compound 117] | hα7-wt nAChR (Homo sapiens, UniProt P36544) | 5.83 |
| CNC(=O)Cn1nc(Nc2cccc(Cl)c2)cc1-c1cc(C)nc(C)c1 [compound 54] | hα7-wt nAChR (Homo sapiens, UniProt P36544) | 6.01 |
| COc1cc(Cl)cc(Nc2cc(-c3ccnc(C)c3)n(CCC(=O)N(C)C)n2)c1 [compound 126] | hα7-wt nAChR (Homo sapiens, UniProt P36544) | 6.04 |

I: C[C@H](O)Cn1nc(Nc2cc(F)c(F)c(F)c2)cc1-c1ccc2c(c1)OCCO2 [compound 85]
II: COc1ccc(-c2cc(Nc3ccc(F)c(F)c3)nn2CCC(=O)N(C)C)c(Cl)c1 [compound 12]
-- ask Lab note: record which item had the higher pEC50, I or II . Give the chosen item's label as your response.
-- reply II

* * *

molecular target: hα7-wt nAChR (Homo sapiens, UniProt P36544); construct: expressed in transfected cells; assay: Ca2+ flux imaging (FDSS) (Protocol B), potentiation of the choline response; assay type: cell-based; conditions: Ca2+ assay as described in D.1; read-out: % Efficacy
Recorded Endpoint: Emax (%)

| Smiles String | Units Symbol | Emax |
| --- | --- | --- |
| CNC(=O)Cn1nc(Nc2cc(OC)cc(C(F)(F)F)c2)cc1-c1ccnc(C)c1C | % | 496 |
| CCNc1cc(-c2cc(Nc3cc(F)cc(C(F)(F)F)c3)nn2C[C@H](C)O)ccn1 | % | 500 |
| Cc1cc(-c2cc(Nc3ccc4c(c3)OC(F)(F)O4)nn2CC(=O)NC2CCC2)cc(C)n1 | % | 509 |
| Cc1ccnc(-c2cc(Nc3ccc(F)c(C(F)(F)F)c3)nn2C[C@H](C)O)c1 | % | 500 |

* * *

target: UniProtKB P36544; experiment: Ca2+ flux imaging (FDSS) (Protocol B), potentiation of the choline response; settings: Ca2+ assay as described in D.1; "<5" = activity did not reach a top plateau at maximal concentration
Recorded Endpoint: EC50 (nM)

| Compound | Units Symbol | EC50 |
| --- | --- | --- |
| Cc1cnccc1-c1cc(Nc2cc(F)cc(C(F)(F)F)c2)nn1CCC(=O)N(C)C [compound 9] | nM | 1020 |
| CC[C@H](O)Cn1nc(Nc2cc(Cl)cc(OC)c2)cc1-c1ccnc(C)c1 [compound 122] | nM | 1020 |
| CCNc1cc(-c2cc(Nc3ccc(F)c(C(F)(F)F)c3)nn2C[C@H](C)O)cc(C)n1 [compound 67] | nM | 1380 |
| CCNC(=O)Cn1nc(Nc2cc(OC)cc(C(F)(F)F)c2)cc1-c1cc(C)nc(C)c1 [compound 140] | nM | 1000 |
| CNC(=O)Cn1nc(Nc2ccc(F)c(C(F)(F)F)c2)cc1-c1cc(C)nc(C)c1 [compound 114] | nM | 1150 |

* * *

target: hα7-wt nAChR (Homo sapiens, UniProt P36544); construct: expressed in transfected cells; assay: Ca2+ flux imaging (FDSS) (Protocol B), potentiation of the choline response; format: cell-based; details: Ca2+ assay as described in D.1; read-out: % Efficacy
Recorded Endpoint: Emax (%)

| Compound | Tested On | Emax [%] |
| --- | --- | --- |
| CCNC(=O)Cn1nc(Nc2ccc3c(c2)OC(F)(F)O3)cc1-c1cc(C)nc(C)c1 [compound 153] | hα7-wt nAChR (Homo sapiens, UniProt P36544) | 737 |
| COc1cc(Nc2cc(-c3cc(C)nc(C)c3)n(CC(=O)NC3CCC3)n2)cc(C(F)(F)F)c1 [compound 162] | hα7-wt nAChR (Homo sapiens, UniProt P36544) | 750 |
| Cc1ccnc(-c2cc(Nc3cc(F)cc(F)c3)nn2CCC(=O)N(C)C)c1 [compound 26] | hα7-wt nAChR (Homo sapiens, UniProt P36544) | 800 |
| CNC(=O)Cn1nc(Nc2cc(F)c(F)c(F)c2)cc1-c1ccnc(C)c1 [compound 109] | hα7-wt nAChR (Homo sapiens, UniProt P36544) | 559 |
| Cc1cc(-c2cc(Nc3cccc(C(F)(F)F)c3)nn2CCC(=O)N(C)C)cc(C)n1 [compound 178] | hα7-wt nAChR (Homo sapiens, UniProt P36544) | 627 |

Data origin, for the record: patent US8779158B2
